Experiment: Cassette pharmacokinetics test in mice
Assay type: in vivo, male CD-1 mice
Settings: male, CD-1, mouse, plasma, 0.5 mg/kg, IV 0.5 mpk, cassette dosing, read-out: Area under curve AUC0-last
y if AUC(0-t) is below 1 µM·h. n if not; exact matches included in n.

// query AUC(0-t) under 1 µM·h? Item: `CN1CCN(c2ccc(C(=O)Nc3n[nH]c4ccc(Cc5cc(F)cc(F)c5)cc34)c(NC3CCOCC3)c2)CC1`
// result n

// query AUC(0-t) under 1 µM·h? Item: `C[C@@H](Oc1cc(-c2cnn(C3CCNCC3)c2)cnc1N)c1c(Cl)ccc(F)c1Cl`
// result y

// query AUC(0-t) under 1 µM·h? Item: `C[C@H]1CNC(=O)c2cnn3ccc(nc23)N[C@H](C)c2cc(F)ccc2O1`
// result n

// query AUC(0-t) under 1 µM·h? Item: `N#Cc1nn2ccc3nc2c1C(=O)NC1(CC1)COc1ncc(F)cc1[C@H]1CCON31`
// result n

// query AUC(0-t) under 1 µM·h? Item: `C[C@H]1Oc2cc(cnc2N)-c2c(nn(C)c2C#N)CN(C)C(=O)c2ccc(F)cc21`
// result n
